Tested on: panel of nearly 500 cancer cell lines
test.name: Cancer Cell Line Encyclopedia profiling, 3-day CellTiter-Glo
Format: cell-based
recorded.conditions: KMS-26
reported.metric: IC50 (nM)
One number for each entry, in nM.

Data request: # returns recorded IC50 (system: panel of nearly 500 cancer cell lines) for CN(C)C(=O)c1cc2cnc(Nc3ccc(N4CCNCC4)cn3)nc2n1C1CCCC1
Data returned: 2530

---

Test system: Pfeiffer
test.name: cells
Type: cell-based
recorded.conditions: Homo sapiens, DLBCL, dominant CDK6, read-out: IC50, mean ± SD
Field: IC50. Provide a value for each of the compounds that follow.
Answers are plain numbers, in µM.

compound: CCN1CCN(Cc2ccc(Nc3ncc(F)c(-c4cc(F)c5nc(C)n(C(C)C)c5c4)n3)nc2)CC1
unit.symbol: µM
IC50: 66

Data request: Please give the measured IC50 for this compound: CC(=O)c1c(C)c2cnc(Nc3ccc(N4CCNCC4)cn3)nc2n(C2CCCC2)c1=O [Palbociclib, reference compound]
Data returned: 89

---

Test system: panel of nearly 500 cancer cell lines
test.name: Cancer Cell Line Encyclopedia profiling, 3-day CellTiter-Glo
Format: cell-based
recorded.conditions: bt20 (breast); read-out: IC50
reported.metric: IC50

Data request: Request the reported IC50 associated with CC(=O)c1c(C)c2cnc(Nc3ccc(N4CCNCC4)cn3)nc2n(C2CCCC2)c1=O [Palbociblib]
Data returned: > 8 µM

---

Tested on: panel of nearly 500 cancer cell lines
test.name: Cancer Cell Line Encyclopedia profiling, 3-day CellTiter-Glo
Format: cell-based
recorded.conditions: Homo sapiens, TOV21G
reported.metric: EC50 (nM)
Numbers only, in nM.

Data request: Looking for the measured EC50 of CN(C)C(=O)c1cc2cnc(Nc3ccc(N4CCNCC4)cn3)nc2n1C1CCCC1 [Ribociclib] , can you help?
Data returned: 1230

---

System: panel of nearly 500 cancer cell lines
test.name: Cancer Cell Line Encyclopedia profiling, 3-day CellTiter-Glo
Assay type: cell-based
recorded.conditions: Homo sapiens, SNU-423
pIC50: −log10 of the molar value.
reported.metric: pIC50

Data request: Sample CN(C)C(=O)c1cc2cnc(Nc3ccc(N4CCNCC4)cn3)nc2n1C1CCCC1 [Ribociclib] — what was its pIC50?
Data returned: < 5.10

---

System: panel of nearly 500 cancer cell lines
test.name: Cancer Cell Line Encyclopedia profiling, 3-day CellTiter-Glo
Type: cell-based
recorded.conditions: Homo sapiens, SK-ES1
pIC50: −log10 of the molar value.
reported.metric: pIC50

Data request: Reported pIC50 for CN(C)C(=O)c1cc2cnc(Nc3ccc(N4CCNCC4)cn3)nc2n1C1CCCC1 [Ribociclib] : what is it?
Data returned: < 5.10

---

System: panel of nearly 500 cancer cell lines
test.name: Cancer Cell Line Encyclopedia profiling, 3-day CellTiter-Glo
Format: cell-based
recorded.conditions: mj (haematopoietic_and_lymphoid_tissue); read-out: IC50
reported.metric: pIC50
Give bare numbers, as −log10 of the molar value.

Data request: Give the measured pIC50 of CC(=O)c1c(C)c2cnc(Nc3ccc(N4CCNCC4)cn3)nc2n(C2CCCC2)c1=O .
Data returned: 5.34

---

Test system: panel of nearly 500 cancer cell lines
test.name: Cancer Cell Line Encyclopedia profiling, 3-day CellTiter-Glo
Format: cell-based
recorded.conditions: Homo sapiens, HEC-1-A
reported.metric: pEC50
Give bare numbers, as −log10 of the molar value.

Data request: Returns the measured pEC50 for the input compound. Input: CC(=O)c1c(C)c2cnc(Nc3ccc(N4CCNCC4)cn3)nc2n(C2CCCC2)c1=O [Palbociclib, reference compound]
Data returned: 6.12

Cited source: paper PMC6219668
